Hello, the source for this data is patent US7786141B2, in case you need it.

target: M1 muscarinic receptor (Homo sapiens, UniProt P11229); construct: expressed in transfected cells; host or cells: CHO (M1-CHO); assay: Functional mobilization of intracellular calcium (FLIPR) in M1-CHO cells; type: cell-based; settings: M1 receptor, calcium mobilization; read-out: M1 Efficacy
Sequence (P11229 whole entry): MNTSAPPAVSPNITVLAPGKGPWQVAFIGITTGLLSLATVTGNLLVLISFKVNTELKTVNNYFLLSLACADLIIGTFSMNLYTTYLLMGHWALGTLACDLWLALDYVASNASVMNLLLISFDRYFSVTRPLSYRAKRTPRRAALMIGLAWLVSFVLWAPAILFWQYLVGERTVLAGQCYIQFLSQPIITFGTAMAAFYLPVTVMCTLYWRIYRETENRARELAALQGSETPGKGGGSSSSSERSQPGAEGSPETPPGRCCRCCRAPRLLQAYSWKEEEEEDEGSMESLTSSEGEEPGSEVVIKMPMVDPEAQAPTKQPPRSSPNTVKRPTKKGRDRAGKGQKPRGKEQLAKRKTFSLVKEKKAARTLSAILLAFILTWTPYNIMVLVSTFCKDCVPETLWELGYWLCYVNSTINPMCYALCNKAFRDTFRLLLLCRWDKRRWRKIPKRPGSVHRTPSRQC
value.kind: Emax

Per the record, CCOC(=O)N1C2CCC1CC(N1CCC3(CC1)CN(C(C)=O)c1ccc(C)cc13)C2 (centres unmarked) has Emax of 65 to 85%

In plain terms, `CCOC(=O)N1CCC(CN2CCC3(CC2)C(=O)N(C)c2ccccc23)CC1` has a documented Emax of < 65%

Lab note: CC(=O)N1CC2(CCN(CC3CCCOC3)CC2)c2cc(F)ccc21 (centres unmarked) gave Emax of < 65%

response.value for CCOC(=O)N1C2CCC1CC(N1CCC3(CC1)CN(C(=O)C1CC1)c1ccc(F)cc13)C2 (centres unmarked) (field: Emax) = < 65%

In plain terms, O=C(O[C@@H]1CCOC1)N1C2CCC1CC(N1CCC3(CCc4ccccc43)CC1)C2 (some centres unmarked) has a documented Emax of > 85%

The reported value for Cc1ccc2c(c1)C1(CCN(C3CC4CCC3C4)CC1)CN2C(=O)c1ccno1 (centres unmarked) in terms of Emax is 65 to 85%

GET /value?item= `Clc1ccc2c(c1)C1(CCO2)CCN(C[C@@H]2C[C@H]3C=C[C@H]2C3)CC1` &field=Emax returns > 85%

Emax reading for COCCOC(=O)N1CC2(CCN(C3CC4CCC(C3)N4C(=O)O[C@H]3CCOC3)CC2)c2cc(F)ccc21 (some centres unmarked) : < 65%

* * *

target: M1 muscarinic receptor (Homo sapiens, UniProt P11229); construct: expressed in transfected cells; host or cells: CHO (M1-CHO); assay: Functional mobilization of intracellular calcium (FLIPR) in M1-CHO cells; format: cell-based; conditions: M1 receptor, calcium mobilization; read-out: M1 Efficacy
Give Emax for every item shown.

Emax reading for CCOC(=O)N1CCC(CN2CCC3(CC2)C(=O)Nc2ccccc23)CC1 [compound 319] : < 65%

Please fill in: Emax reported for CC(C)OC(=O)N1C2CCC1CC(N1CCC3(CC1)CN(C(=O)N(C)C)c1ccc(F)cc13)C2 (centres unmarked) [compound 108] = 65 to 85%

Recorded Emax (compound CCCOC(=O)N1CCCC(N2CCC3(CC2)CN(C(C)=O)c2ccc(F)cc23)CC1 (centres unmarked) [compound 266] ): < 65%

The compound CCOC(=O)N1CCC(N2CCC3(CC2)CNc2ccccc23)CC1 [compound 352] showed Emax equal to > 85%

Record O=C(O[C@H]1CCOC1)N1C2CCC1CC(N1CCC3(CC1)C(=O)Nc1ccccc13)C2 (some centres unmarked) [compound 301] . Reported Emax: < 65%

The measured Emax associated with O=C1Nc2ccccc2C12CCN(CC1CC3C=CC1C3)CC2 (centres unmarked) [compound 7] reads 65 to 85%

So for CCOC(=O)N1C2CCC1CC(CN1CCC3(CC1)CNc1ccc(C)cc13)C2 (centres unmarked) [compound 332] , the logged Emax turned out to be < 65%

Emax reading for CC(=O)N1CC2(CCN(C3CCN(C(=O)OC4CCC4)CC3)CC2)c2cc(C)ccc21 [compound 151] : > 85%

Given item CCOC(=O)N1CCCC(N2CCC3(CC2)CN(C(C)=O)c2ccc(F)cc23)CC1 (centres unmarked) [compound 309] , the value recorded as its Emax is > 85%

Sample CCOC(=O)N1CCC(N2CCC3(CC2)CN(C(=O)OCCOC)c2ccc(F)cc23)CC1 [compound 38] ; Emax observed: > 85%

COC(=O)N1CCC(N2CCC3(CC2)CN(C(C)=O)c2ccc(C)cc23)CC1 [compound 312] has a reported Emax of < 65%

Lab note: measured Emax of CCOC(=O)N1CCC(N2CCC3(CC2)CN(C(=O)c2cc(C)oc2C)c2ccc(F)cc23)CC1 [compound 335] was < 65%

Record summary for CCOC(=O)N1C2CCC1CC(N1CCC3(CC1)CC(NC(C)=O)c1ccccc13)C2 (centres unmarked) [compound 318] : reported Emax = 65 to 85%

Looking up Fc1ccc2c(c1)C1(CCN(C[C@H]3C[C@H]4CC[C@H]3C4)CC1)CO2 [compound 207] , I see its Emax listed as 65 to 85%

The value of Emax measured for the compound COC(=O)N1CC2(CCN(C3CC4CCC(C3)N4C(=O)OCC(C)C)CC2)c2cc(F)ccc21 (centres unmarked) [compound 287] turned out to be < 65%

Reported Emax for CCCOC(=O)N1C2CCC1CC(N1CCC3(CC1)COc1ccc(F)cc13)C2 (centres unmarked) [compound 283] was 65 to 85%

Record Clc1ccc2c(c1)C1(CCN([C@H]3C[C@@H]4CC[C@H]3C4)CC1)CO2 [compound 181] , field Emax: 65 to 85%

According to the records, this compound CC(=O)NC1CC2(CCN(C3CCCCC3)CC2)c2ccccc21 (centres unmarked) [compound 2] displays Emax of < 65%

compound CCOC(=O)N1CCC(N2CCC3(CC2)C(=O)N(C)c2ccccc23)CC1 [compound 31] , Emax observed: > 85%

response.value for CN(C)C(=O)N1CC2(CCN(C3CC4CCC(C3)N4C(=O)O[C@H]3CCOC3)CC2)c2cc(F)ccc21 (some centres unmarked) [compound 130] (field: Emax) = < 65%

Measured Emax, CCOC(=O)N1CCC(N2CCC3(CC2)CN(C(C)=O)c2ccc(-c4cccc(F)c4)cc23)CC1 [compound 84] : 65 to 85%

Emax reading for CCOC(=O)N1CCC(N2CCC3(CC2)CN(C(C)=O)c2ccc(-c4ccc(C(F)(F)F)cc4)cc23)CC1 [compound 295] : 65 to 85%

Entry CCOC(=O)N1CCC(N2CCC3(CC2)CN(C(C)=O)c2ccc(OC(F)(F)F)cc23)CC1 [compound 225] — recorded Emax = < 65%

The compound identified as CN(C)C(=O)N1CC2(CCN(C3CC4CCC(C3)N4C(=O)O[C@@H]3CCOC3)CC2)c2cc(F)ccc21 (some centres unmarked) [compound 188] registered its Emax at < 65%

Lookup result for CCOC(=O)N1C2CCC1CC(N1CCC3(CC1)CC(=O)Nc1ccccc13)C2 (centres unmarked) [compound 56] ; measured Emax: 65 to 85%

// Emax lookup, compound = Cc1ccc2c(c1)C1(CCN(C3CC4CCC3C4)CC1)CN2C(=O)C1CC1 (centres unmarked) [compound 51] , result: 65 to 85%

Please fill in: Emax reported for c1ccc2c(c1)NCC21CCN(C2CC3CCC2C3)CC1 (centres unmarked) [compound 272] = 65 to 85%

Per the record, Clc1ccc2c(c1)C1(CCN(CC3CCCCC3)CC1)CN2 [compound 157] has Emax of 65 to 85%

response.value for CCOC(=O)N1CCC(N2CCC3(CC2)CN(C(C)=O)c2ccc(C4CC4)cc23)CC1 [compound 245] (field: Emax) = < 65%

Emax recorded for this compound, COC(=O)N1CCC(N2CCC3(CC2)CN(C(C)=O)c2ccc(F)cc23)CC1 [compound 374] , is 65 to 85%

// recorded Emax for CCOC(=O)N[C@@H]1CC2(CCN(C[C@H]3C[C@H]4CC[C@H]3C4)CC2)c2ccccc21 [compound 275] : 65 to 85%

Per the records, this compound ( O=C(C1CC1)N1CC2(CCN(C3CC4CCC(C3)N4C(=O)O[C@@H]3CCOC3)CC2)c2cc(F)ccc21 (some centres unmarked) [compound 87] ) has Emax equal to 65 to 85%
